Target: UniProt Q9Y233
Test: PDE10 enzyme inhibition, IMAP TR-FRET assay (MPDE10A7 Enzyme Activity and Inhibition)
Assay type: biochemical
Conditions: PDE10 enzyme inhibition; average IC50 data for each compound; read-out: Average IC50
REPORTED METRIC: pIC50
To interpret pIC50, take it as minus log10 of a concentration measured in moles per litre.

# COMPOUND, TESTED TARGET, pIC50
records = [
    ("O=C(c1ccc(Oc2nccnc2[C@H]2CCC[C@@H](O)C2)cc1)c1nc2ccccc2[nH]1 [drawing 909]", "UniProt Q9Y233", 9.02),
    ("COc1ncccc1-c1nccnc1Oc1ccc([C@H](O)c2nc3ccccc3[nH]2)cc1 (stereo in doubt)", "UniProt Q9Y233", 7.83),
    ("O=C(c1ccc(Oc2nccnc2C(=O)O)cc1)c1nc2ccccc2[nH]1", "UniProt Q9Y233", 6.25),
    ("O=C(c1ccc(Oc2nccnc2-c2ccc[nH]c2=O)cc1)c1nc2ccccc2[nH]1 [drawing 938]", "UniProt Q9Y233", 8.15),
]

q: Recorded pIC50 for COC(=O)[C@@H]1CCN(c2nccnc2Oc2ccc(C(=O)c3nc4ccccc4[nH]3)cc2)C1 (stereo in doubt) , please?
a: 8.46

q: # repeat for COc1cc(-c2nccnc2Oc2ccc(Nc3nc4ccccc4s3)cc2)ccn1 [drawing 958]
a: 7.33
